pKi: −log10 of the molar value.
System: Tyrosine-protein kinase JAK3 (Homo sapiens) | Read-out: pKi | Origin: multiple publications

Example entries and their recorded answers appear below.
                                   compound                                    target  value_measured
0  CN(C)CCN(Cc1ccccc1)C(=O)c1c(N)nn2cc(-c3ccncn3)cnc12  Tyrosine-protein kinase JAK3 (Homo sapiens)          < 5.30
1  CC[C@H](CO)Nc1cc(-c2c(N)nn3cc(C)cnc23)ncn1  Tyrosine-protein kinase JAK3 (Homo sapiens)    5.30 to 6.30
2  CC[C@H](Nc1cc(-c2cnn3cccnc23)ncn1)c1ccc(F)c(F)c1  Tyrosine-protein kinase JAK3 (Homo sapiens)    7.00 to 8.00
3  C[C@H](Nc1nc(-c2ccc(N)nc2)ncc1F)C(=O)NCC(F)(F)F  Tyrosine-protein kinase JAK3 (Homo sapiens)    4.30 to 5.00
4  Cc1cnc2c(-c3cc(NC4CCN(Cc5ccccc5)CC4)ncn3)c(N)nn2c1  Tyrosine-protein kinase JAK3 (Homo sapiens)    5.30 to 6.30
5  CN(CCc1ccccn1)C(=O)c1cccc(-c2cnc3c(-c4ccccn4)c(N)nn3c2)n1  Tyrosine-protein kinase JAK3 (Homo sapiens)          < 5.30

Then there is this compound:
Input line: What reported pKi corresponds to Nc1nc(-c2c[nH]c3ncncc23)ncc1F on Tyrosine-protein kinase JAK3 (Homo sapiens)?
Output line: 5.30 to 6.30

* * *

System: Tyrosine-protein kinase JAK3 (Homo sapiens) | Read-out: Ki | Origin: multiple publications

Example entries and their recorded answers appear below.
                                   molecule                                    target  value_measured
0  O=C(NC1CC1)[C@H]1CCCN1c1nc(-c2c[nH]c3ncc(Cl)cc23)ncc1F  Tyrosine-protein kinase JAK3 (Homo sapiens)        ≥ 0.1 µM
1  CN(C)CCNC(=O)c1cccc(-c2cnc3c(-c4ccccn4)c(N)nn3c2)c1  Tyrosine-protein kinase JAK3 (Homo sapiens)          > 5 µM
2  COC(=O)C1CCCN1C(=O)c1ccc(-c2cnc3c(-c4ccccn4)c(N)nn3c2)nc1 (centres unmarked)  Tyrosine-protein kinase JAK3 (Homo sapiens)     0.5 to 5 µM
3  CC(C)(C)CC(=O)Nc1cc(-n2cnc(Nc3ccccc3)n2)ccn1  Tyrosine-protein kinase JAK3 (Homo sapiens)          > 1 µM
4  CC(C)[C@@H](Nc1nc(-c2ccc3ncccc3c2)ncc1F)C(=O)NCC(F)(F)F  Tyrosine-protein kinase JAK3 (Homo sapiens)      1 to 10 µM

Input line: Bench note: what Ki did CCCCN(CCN)C(=O)c1ccc(-c2cnc3c(-c4ccccn4)c(N)nn3c2)nc1 show?
Output line: > 5 µM

Input line: Bench note: what Ki did O=C(NCC(F)(F)F)[C@H]1CCCN1c1nc(-c2ccc3ncsc3c2)ncc1F show?
Output line: 1 to 10 µM

Input line: Bench note: what Ki did c1ccc(C2Nc3ccccc3-c3ccnc4[nH]cc2c34)cc1 (centres unmarked) show?
Output line: 0.25 to 2.5 µM

* * *

System: Tyrosine-protein kinase JAK3 (Homo sapiens) | Read-out: pKi | Origin: multiple publications
pKi: −log10 of the molar value.

Example entries and their recorded answers appear below.
>>> print(df.to_string())
                                   molecule  value_measured
0  CC(=O)N1[C@H](C)CN(c2cc(-n3cnc(Nc4ccc(N5CCOCC5)cc4)n3)ccn2)C[C@@H]1C    6.00 to 8.00
1  Fc1ccc(C2Nc3ccccc3-c3ccnc4[nH]cc2c34)cc1 (stereo not drawn)    5.60 to 6.60
2  COC(=O)[C@@H]1CC[C@H](C(=O)Nc2nc(-c3ncnc4[nH]ccc34)cs2)C1    6.30 to 7.00

Input line: Bench note: what pKi did CCOC(=O)C1CCCN(c2ccc(-c3cnc4c(-c5ccccn5)c(N)nn4c3)cn2)C1 (stereo not drawn) show?
Output line: < 5.30

Input line: Bench note: what pKi did CCN(CC)C(=O)c1cccc(-c2cnc3c(-c4ccccn4)c(N)nn3c2)n1 show?
Output line: < 5.30

Input line: Bench note: what pKi did C[C@H](Nc1cc(-c2cnn3cccnc23)nc(NC(=O)CN2CCOCC2)n1)c1ccc(F)cc1F show?
Output line: 6.30 to 7.00

Input line: Bench note: what pKi did Cc1c[nH]c2ncnc(-c3c[nH]c(C(=O)N(C)CCc4ccccc4)c3)c12 show?
Output line: 6.30 to 7.00

Input line: Bench note: what pKi did CCc1ccccc1-c1cnc2c(-c3ccccn3)c(N)nn2c1 show?
Output line: < 5.30

Input line: Bench note: what pKi did CC[C@@H]1CC[C@@H](CC)N1C(=O)c1cc(-c2ncnc3[nH]ccc23)c[nH]1 show?
Output line: 6.30 to 7.00

Input line: Bench note: what pKi did CC(C)[C@@H](Nc1ccnc(-c2ccc3c(c2)OCO3)n1)C(=O)NCC(F)(F)F show?
Output line: 4.30 to 5.00

Input line: Bench note: what pKi did Cc1cnc2c(-c3cc(NC4CC4)ncn3)c(N)nn2c1 show?
Output line: 5.30 to 6.30

Input line: Bench note: what pKi did O=C(c1cc(-c2ncnc3[nH]ccc23)c[nH]1)N1CCC(CO)CC1 show?
Output line: 5.30 to 6.30

Input line: Bench note: what pKi did CC(C)OCCOc1nc(N[C@@H](C)c2ccc(F)cc2)cc(-c2c(N)nn3cccnc23)n1 show?
Output line: 7.00 to 8.00

Input line: Bench note: what pKi did Fc1cccc(-c2cnoc2-c2c[nH]c3ncc(-c4c[nH]cn4)cc23)c1F show?
Output line: > 6.70

Input line: Bench note: what pKi did Cc1cnc2c(-c3cc(NC4CC5CCC4C5)ncn3)c(N)nn2c1 (stereo not drawn) show?
Output line: 5.30 to 6.30

Input line: Bench note: what pKi did c1ccc2c(c1)N=C(c1ccncc1)c1c[nH]c3nccc-2c13 show?
Output line: 5.60 to 6.60

Input line: Bench note: what pKi did Nc1nn2cc(-c3ccncn3)cnc2c1C(=O)N1CCC(O)C1 (stereo not drawn) show?
Output line: < 5.30
